Please go through the items and note down their max % larvae.
- Tested on: Danio rerio embryo/larva
- assay protocol: max % larvae with abnormal position across tested concentrations; higher = more toxic; extreme values may be limits of the assay
- condition set: exposure: 6-8 hpf to 5 dpf, scored at 6 dpf
State the answer as a number, implicitly in %.

-- ask What does the record list as max % larvae for O=C(O)C(F)(F)C(F)(F)C(F)(F)C(F)(F)C(F)(F)C(F)(F)C(F)(F)C(F)(F)Cl [9-Chloro-perfluorononanoic acid] (max tested concentration (log10 uM): 2) ?
-- reply 25

-- ask What does the record list as max % larvae for OCC(F)(F)OC(F)(F)C(F)(F)OC(F)(F)CO [1H,1H,8H,8H-Perfluoro-3,6-dioxaoctane-1,8-diol] (max tested concentration (log10 uM): 2) ?
-- reply 0

-- ask What does the record list as max % larvae for O=C(O)C(F)(F)C(F)(F)C(F)(F)C(F)(F)C(F)(F)C(F)(F)C(F)(F)C(F)(F)C(F)(F)F [Perfluorodecanoic acid] (max tested concentration (log10 uM): 1.47712) ?
-- reply 0

-- ask What does the record list as max % larvae for C[N+](C)(C)CCCNS(=O)(=O)C(F)(F)C(F)(F)C(F)(F)C(F)(F)C(F)(F)C(F)(F)C(F)(F)C(F)(F)F (max tested concentration (log10 uM): 1.47712) ?
-- reply 12.5

-- ask What does the record list as max % larvae for FC(F)(I)C(F)(F)C(F)(F)C(F)(F)I [Perfluoro-1,4-diiodobutane] (max tested concentration (log10 uM): 2) ?
-- reply 16.7

Entry source: the supplement of paper PMC11281043
